Assay method text: yeast display, Sf9 membrane polyspecificity reagent, FACS + sequencing; frameworks hold sequencing errors
Property: polyreactivity (PSR sort gate)

Study these solved cases before continuing.
{"Seq": "QVQLVESGGGLVQAGGSLRLSCAASGRIFYYYDMGWYRQAPGKERELVAGINDDSSTYYADSVKGRFTISRDNAKNTVYLQMNSLKPEDTAVYYCNAGPSWYPSWYYYWGQGTQVTVSS", "polyreactivity (PSR sort gate)": "low polyreactivity"}
{"Seq": "QVQLVESGGGLVQAGGSLRLSCAASGRIFSYNAMGWYRQAPGKERELVAAITFSGGGTYYADSVKGRFTISRDNAKYTVYLQMNSLKPEDTAVYYCNKVSYGYSTYGYWGQGTQVTVSS", "polyreactivity (PSR sort gate)": "low polyreactivity"}
{"Seq": "QVQLVESGGGLVQERGSLRLSCAASGSIFFPYAMGWSRQAPGKDRELVAAITRGGNTKYADSVKGRFTISRDNAKNTVYIQMNSLKPEDTAVFYCAARGASIPYGYWGQGTQVTVSS", "polyreactivity (PSR sort gate)": "high polyreactivity"}
{"Seq": "QVQLVESGGGLVQAGGSLRLSCAASGIIFGKYAMGWYRPAPGKDRELVAAINYSGSTYYADSVKGRFTISRDNAKNTVYLQMNSLKPEDTAVYYCAARNRTFFQPTYYYWGQGTQVTVSS", "polyreactivity (PSR sort gate)": "high polyreactivity"}

Reported polyreactivity (PSR sort gate) for `QVQLVESGGGLVQAGGSLRLSCAASGRIFSYYAMGWYRQAPGKERELVAVISRRGDNTYYADSVKGRFTISRDNAKNTVYLQMNSLKPEDTAVYYCAVQFVFIFYYGYDYWGQGTQVTVSS` : what is it? high polyreactivity

###

Assay method text: yeast display, Sf9 membrane polyspecificity reagent, FACS + sequencing; frameworks hold sequencing errors
Property: polyreactivity (PSR sort gate)

Study these solved cases before continuing.
{"Seq": "QVQLVESGGGLFQAGGSLRLSCAASGRTFCPYTMGWYRQAPGKERELVAVISSNDGSTDYADSVKGRFTFSRDNAKNTVYLQMNSLKPEDTAVYYCAAEVYFGYYGGYGYWGQGTQVTVSS", "polyreactivity (PSR sort gate)": "low polyreactivity"}
{"Seq": "QVQLEESGGGLVQAGGSLSVSCAASGSICRNYAMGWYLQAPGKERELVAAISVRGGSTYYADSVKGRFTISRDNAKNTVYLQMHSLKPEDTAGYYCNAVHHDTISDYWGQGTQVTVSS", "polyreactivity (PSR sort gate)": "high polyreactivity"}
{"Seq": "QVQLVESGGGLVQAGGSLRLSCAASGSTFFAYAMGWYRQAPGKERELVAAITGRGSTYYADSVKGRFSISRDNAKNTVYLQMNSLKPEDTAVYYCAAQRSRRYYRLDYWGQGTQVTVSS", "polyreactivity (PSR sort gate)": "high polyreactivity"}
{"Seq": "QVQLVESGGGLVQAGGSLLLSCAASGSTFTQYAMGWYRQAPGKERELVAAINSRGDSTYYADSVKGRFTISRDNAKNTVYLQMNSLKPEDTAVYYCAKDPFPWALFDYWGQGTQVTVSS", "polyreactivity (PSR sort gate)": "low polyreactivity"}
{"Seq": "QVQLVESGGGLVQAGGSLRLSCAASGVIFDFNAMGWYRQAPGKERELAASISRSGGSTYYADSVKGRFTISRDNAKNTVYLQMNSLKPEDTAVYYCAKASKGQYRFDYWGQGTQVTVSS", "polyreactivity (PSR sort gate)": "low polyreactivity"}
{"Seq": "QVQLVESAGGLVQAGGSLSLSCAASGSIFIWYAMGWDRQAPGKERELVAAIRSGGSTYYADSVKGRFTISRDNAKNTVYLQMNSLKPEYTAVYYCAKVLTWRGYRYNYWGQGTQVTVSS", "polyreactivity (PSR sort gate)": "low polyreactivity"}

Moving on to another sequence below.
Reported polyreactivity (PSR sort gate) for `QVQLVESGGGLVQAGGSLRLSCAASGFIFSYYAMGGYRQAPGKERELVAAITSGGSTNYADSVKGRLTISRDNAKNTFYLQMNSLKPEDTAVYYCAAERGDTAYLKYDYCGQGTQVTVSS` : what is it? low polyreactivity

###

Assay method text: yeast display, Sf9 membrane polyspecificity reagent, FACS + sequencing; frameworks hold sequencing errors

{"Seq": "QVQLVESGGGIVQAGGSLRLRCAASGSTFNKYAMGWYRQAPGKERELVAAISGGGRTNYADSVKGRFTISRDNAKNTVYLQMNSLKPEDTAVYSCARPSPHKGYDYWGQGTQVTVSS", "polyreactivity (PSR sort gate)": "high polyreactivity"}
{"Seq": "QVQLVESGGGLVQAGGSLRLSCAASGSTIFSYAMGWYRQAPGKERELVAAITYRSSRTYYADSVKGRFTISRDNAKNTVYLQMNSLKPEDTAVYYCAAGYFSYRRYDYWGQGTQVTVSS", "polyreactivity (PSR sort gate)": "high polyreactivity"}

###

Assay method text: yeast display, Sf9 membrane polyspecificity reagent, FACS + sequencing; frameworks hold sequencing errors
Property: polyreactivity (PSR sort gate)

Study these solved cases before continuing.
{"Seq": "QDQLEESGGGLVQAGGSLRLSCSASGSIFRRNAMGWYRQAPGKERELVAGITRSTGDTYYADSVKGRFTISRDNAKNTVYLQMNSMKPEDTAVYYCAACGSYYRDDYWGQGTQVTVSS", "Value": "low polyreactivity"}
{"Seq": "QVQLEESGGGLVQAGGRLRLSCAASGSTFVRSVMGSYRAAPGKERELVAAISEGGGSTYYADSVKGRFTISRDNAKNTVYLQMNSLKPEDTAVYYCAAEGYFRYWYGTIQYDYWGQGTQVTVSS", "Value": "high polyreactivity"}
{"Seq": "QVQLVESGGGLVQAGGSLRLSCAASGIFRRYAMGWYREAPGKERELVAAISSNGGSTYYADSVKGRFTISRDNAKNTVYLQMNSLKPEDTAVYYCNADVYVWNYKYYSWGQGTQVTVSS", "Value": "high polyreactivity"}
{"Seq": "QVQLVESGGGLVQAGGSLRLSCAASGTTFFINDLGWYRQAPGKERELVAAISWSGDSTYYPDSVKGRFTISRDNAKNTVYLQMKSLKPEDTAVYYCAADWGFVQPGWSYNYWGQGTQVTVSS", "Value": "high polyreactivity"}

Moving on to another sequence below.
Reported polyreactivity (PSR sort gate) for `QVQLVESGGGLVQAGGSLRLSCVASGRIFQSYAMGWYRQAPGKERELVARITGGSSTYYADSVKGRFTISRDNAKNTVYLQMNSLKPEDTAVYYCAARTRGPDRARYDYWGQGTQVTVSS` : what is it? low polyreactivity

###

Assay method text: yeast display, Sf9 membrane polyspecificity reagent, FACS + sequencing; frameworks hold sequencing errors
Property: polyreactivity (PSR sort gate)

Study these solved cases before continuing.
{"Seq": "QVQLVESGGGLVQAGGSLRLSCAASGGTFSVYGMGGYRQAPGKERELVAAITLSGGRTYYADSVKGRFTISRDNATNTLSLQMNSLQPEDTAVYYCNTLPWSRTKRDYWGQGTQGTVSS", "Property": "polyreactivity (PSR sort gate)", "Value": "low polyreactivity"}
{"Seq": "QVQLVESGGGLVQAGGSLRLSCAASGSTFIKYTMGWYRQAPGKERELVAAISVRGGSTTYADSVKGRFTISRDNAKNTVYLQRNSLKPEDTAVYYCAKDHYYAGTWRYGYWGQGTQVTVSS", "Property": "polyreactivity (PSR sort gate)", "Value": "high polyreactivity"}
{"Seq": "QVQLVESGGGLVQAGGSLRLSCADSGFILDYNTMGWYRQAPGKERELVAAISSSGDTTYYADSVKGRFTISRDNAKNTVYLQMNSLKPEDTAVYYCAREYGDGYEYWGQGTQVTVSS", "Property": "polyreactivity (PSR sort gate)", "Value": "low polyreactivity"}
{"Seq": "PVQLVESGGGLVQAGGSLRLSCAASGSTFAYNAMGWYRQAPGKERELVAAISWSGGTTYYADSVKGRFTISPDNAKNPVYLQMNSLKPEDTAVYYCAADVYLNRRQRMYYWGQGTQVTVSS", "Property": "polyreactivity (PSR sort gate)", "Value": "high polyreactivity"}
{"Seq": "QVQLVESGGGLVQAGGSLRLSCAASGRIFLWYAMGWYRQAPGKERELVAAISSNGGSTRYADSVKGRFTFSRDNAKNTVYLQMNSLKPEDTAVYYCNADVHWNRYPYGGNGYGYWGQGTQVTVSS", "Property": "polyreactivity (PSR sort gate)", "Value": "low polyreactivity"}
{"Seq": "QVQHVESGGGLVQAGGSLRLSCAASGLTFANYVMGWYRQAPGKERELVASISISGGSTYYADSVKGRFTISRDNAKNTVYLQMNSLKPEDTAVYYCAASFVSSYQYDYWGQGTQVTVSS", "Property": "polyreactivity (PSR sort gate)", "Value": "high polyreactivity"}

Reported polyreactivity (PSR sort gate) for `QVQLVDSGGGLVQAGGSLRLSCAASGRIFHCYAMGWYRQAPGKERELVAAIRASGGRTYYADSVKGRFTISRDNAKNTVYLQMNSLKPEDTAVYYCAADSVKYGGDYWGQGTQVTVSS` : what is it? high polyreactivity

Reported polyreactivity (PSR sort gate) for `QVQLVESGGGLVQSGGSLRLSCAASGSTIPPNAMGWYRQAPGKERELVAGISYGGSTTYADSVKGRFTISRDNAKNTVYLQMNSLKPEDTAVYYCAADQPYWRDYDYWGQGTQVTVSS` : what is it? low polyreactivity

Reported polyreactivity (PSR sort gate) for `QGQLVESGGGLVQAGGSLRLSCAASGFIFRYYTMGWYRQAPGKERELVATITSGGSTYYADSVKGRFTISRDNAKNTVYLQMNSLKPEDTAVYYCNADTLGGKYVYQDRRGFDYWGQGTQVSVSS` : what is it? high polyreactivity

Reported polyreactivity (PSR sort gate) for `QVQLVESGGGLVQAGGSLRLSCGASGSSFADNAMGRYRPATGTERELVDTNTGSGGSTYYADSVKGRFTISRDNAKNTVYLLMNSLKPEDTAVYYCAAEVVAWSLYEDFKTYDYWGQGTQVTVSS` : what is it? low polyreactivity

Reported polyreactivity (PSR sort gate) for `QVQLVESGGGLVQAGGSLRLSCAASGSTFKWYAMGWYRQAPGKERELVAAISQSGSRTYYADSVKGRFTISRDNAKNTVYLQMNSLKPEDTAVYYCNARRYIYNYDYWGQGTQVTVSS` : what is it? high polyreactivity
